Reported Activity values follow for various molecules
# test_target: Pyrroline-5-carboxylate reductase (Arabidopsis thaliana) (UniProt P54904)
# Sequence (whole entry): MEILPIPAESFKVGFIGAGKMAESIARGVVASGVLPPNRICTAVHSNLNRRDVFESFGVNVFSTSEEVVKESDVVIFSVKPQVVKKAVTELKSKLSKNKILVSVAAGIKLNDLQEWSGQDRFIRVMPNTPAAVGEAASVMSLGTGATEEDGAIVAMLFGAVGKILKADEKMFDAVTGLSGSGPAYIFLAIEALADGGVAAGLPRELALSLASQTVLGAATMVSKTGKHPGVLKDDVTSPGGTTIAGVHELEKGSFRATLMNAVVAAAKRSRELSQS
# test_protocol: Inhibition of Arabidopsis thaliana P5C reductase catalytic activity assessed as inhibition of NADH oxidation at 340 nm OD at 0.2 mM by NADH oxidation assay
# Set-up: scale not given: the % may be the effect or the level left
Report as a plain number; the unit % is understood.

The cases that follow already have their Activity on record.
| molecule | readout_name | experimental_value |
| --- | --- | --- |
| Cc1ccccc1CNC(P(=O)(O)O)P(=O)(O)O | Activity | 109 |
| Cc1cccc(NC(P(=O)(O)O)P(=O)(O)O)n1 | Activity | 88.7 |
| O=P(O)(O)C(NCc1ccccc1)P(=O)(O)O | Activity | 98.5 |
| NC(P(=O)(O)O)P(=O)(O)O [AMINOMETHYLENEBISPHOSPHONIC ACID] | Activity | 106 |
| O=C(O)c1cccc(NC(P(=O)(O)O)P(=O)(O)O)c1 | Activity | 95 |

Input line: Reported Activity, molecule O=P(O)(O)C(Nc1ccccc1)P(=O)(O)O : ____
Output line: 98.3

Input line: Item under review: O=P(O)(O)C(Nc1ccncc1)P(=O)(O)O . Reported Activity?
Output line: 115

Input line: Fill in the blank: the reported Activity of Cc1ccc(NC(P(=O)(O)O)P(=O)(O)O)cc1 is ____.
Output line: 110

Input line: Field request: Activity | item: O=P(O)(O)C(Nc1ccc(Cl)cn1)P(=O)(O)O
Output line: 101

Input line: Query (molecule): O=P(O)(O)C(Nc1ncccn1)P(=O)(O)O ; field requested: Activity
Output line: 110
